subject of test: human EP4 receptor (Homo sapiens)
Construct: expressed in transfected cells
Sequence (P35408 whole entry): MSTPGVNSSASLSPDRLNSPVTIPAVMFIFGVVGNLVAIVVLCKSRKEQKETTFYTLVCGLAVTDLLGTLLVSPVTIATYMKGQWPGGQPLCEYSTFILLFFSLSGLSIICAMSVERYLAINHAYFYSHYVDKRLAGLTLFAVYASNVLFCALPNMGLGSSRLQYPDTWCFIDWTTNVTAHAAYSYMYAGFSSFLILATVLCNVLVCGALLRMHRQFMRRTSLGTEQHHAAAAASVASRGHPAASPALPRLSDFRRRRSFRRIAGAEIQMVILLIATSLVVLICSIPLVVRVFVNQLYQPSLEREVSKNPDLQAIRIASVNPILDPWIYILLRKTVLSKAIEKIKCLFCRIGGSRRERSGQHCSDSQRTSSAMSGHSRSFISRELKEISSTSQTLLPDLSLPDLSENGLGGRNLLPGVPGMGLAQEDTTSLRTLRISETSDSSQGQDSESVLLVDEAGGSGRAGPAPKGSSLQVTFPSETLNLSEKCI
assay overview: Binding ability to human EP4 receptor ([3H]PGE2 displacement)
run conditions: read-out: pKi EP4 (converted)
// reported Ki for each item listed

Solved entries (count: 5):
[[record]]
molecule = "COc1ccc(-c2ccc(OCc3cc(C(=O)O)oc3C)cc2)c(OC)c1"
value_observed = "< 3160 nM"

[[record]]
molecule = "Cc1oc(S(=O)(=O)NC(=O)c2cccnc2)cc1COc1ccc(-c2ccccc2)cc1"
value_observed = "< 1000 nM"

[[record]]
molecule = "COc1ccc(-c2ccc(NC(=O)c3cc(C(=O)O)oc3C)cc2)cc1"
value_observed = "< 316 nM"

[[record]]
molecule = "CSc1ccccc1-c1ccc(OCc2cc(C(=O)O)oc2C)cc1"
value_observed = "< 3160 nM"

[[record]]
molecule = "Cc1ccccc1S(=O)(=O)NC(=O)c1cc(C[S+]([O-])c2ccc(-c3ccc(OC(F)F)cc3)cc2)c(C)o1 (stereo not drawn)"
value_observed = "< 10000 nM"


Identify the reported Ki for the following entry. CSc1ccc(-c2ccc(OCc3cc(C(=O)O)oc3C)cc2)cc1
< 3160 nM

Identify the reported Ki for the following entry. COc1ccc(-c2ccc(OCc3cc(C(=O)O)oc3C)cn2)cc1
< 3160 nM

Identify the reported Ki for the following entry. COc1ccc(-c2ccc(OCc3cc(C(=O)O)oc3C(C)C)cc2)cc1
< 1000 nM

Identify the reported Ki for the following entry. Cc1oc(-c2nnn[nH]2)cc1COc1ccc(-c2ccccc2)cc1
< 100 nM

Identify the reported Ki for the following entry. Cc1oc(C(=O)O)cc1CSc1ccc(-c2ccc(OC(F)F)cc2)cc1
< 1000 nM

Identify the reported Ki for the following entry. COc1ccc(-c2ccc(OCc3cc(CCC(=O)O)oc3C)cc2)cc1
< 100 nM
